Target: T1, 14-3-3σ, full-length, recombinant (human, UniProt P31947 1-248)
T1 sequence (looked up): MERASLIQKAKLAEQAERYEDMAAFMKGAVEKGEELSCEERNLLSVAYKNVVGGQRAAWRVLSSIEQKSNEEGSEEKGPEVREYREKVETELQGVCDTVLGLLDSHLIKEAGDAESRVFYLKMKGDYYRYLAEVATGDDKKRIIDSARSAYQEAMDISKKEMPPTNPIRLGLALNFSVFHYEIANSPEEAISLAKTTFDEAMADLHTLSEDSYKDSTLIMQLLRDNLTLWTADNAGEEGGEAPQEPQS
Assay: fluorescence polarisation
Where no end group is shown, it is not given here. [ ]: non-standard residue; d: D form. pT = C[C@@H](OP(=O)(O)O)[C@H](N)C(=O)O; FAM = fluorescein
Reported Kd by item:

{"Binder": "{FAM}-KYYITGEAEGFPA[pT]L (peptide, UniProt P03372 581-595, looked up) [N-FAM-2 variant with C-terminal residue L]", "Kd (µM)": 0.17}
{"Binder": "{FAM}-KYYITGEAEGFPA[pT]S (peptide, UniProt P03372 581-595, looked up) [N-FAM-2 variant with C-terminal residue S]", "Kd (µM)": 3.54}
{"Binder": "{FAM}-KYYITGEAEGFPA[pT]T (peptide, UniProt P03372 581-595, looked up) [N-FAM-2 variant with C-terminal residue T]", "Kd (µM)": 1.32}
{"Binder": "{FAM}-KYYITGEAEGFPA[pT]N (peptide, UniProt P03372 581-595, looked up) [N-FAM-2 variant with C-terminal residue N]", "Kd (µM)": 32.4}
{"Binder": "{FAM}-KYYITGEAEGFPA[pT]A (peptide, UniProt P03372 581-595, looked up) [N-FAM-2 variant with C-terminal residue A]", "Kd (µM)": 0.7}
{"Binder": "{FAM}-KYYITGEAEGFPA[pT]F (peptide, UniProt P03372 581-595, looked up) [N-FAM-2 variant with C-terminal residue F]", "Kd (µM)": 4.03}
{"Binder": "{FAM}-KYYITGEAEGFPA[pT]D (peptide, UniProt P03372 581-595, looked up) [N-FAM-2 variant with C-terminal residue D]", "Kd (µM)": 48.2}
